conditions.used: in ethanol, 318.15 K
metric: solubility (mole fraction)
# respond with the number and nothing more

Look up and report measured solubility (mole fraction) for this entry: "NC(=O)c1ccccc1"
0.122

====

conditions.used: in n-propanol, 283.15 K
metric: solubility (mole fraction)
Please reply with the value in numeric form only.

Look up and state reported solubility (mole fraction) for "NC(=O)c1ccccc1"
0.0329

====

conditions.used: in n-propanol, 293.15 K
metric: solubility (mole fraction)
A bare number is all that is needed in reply.

Using known records, supply solubility (mole fraction) for "NC(=O)c1ccccc1"
0.0471

====

conditions.used: in ethyl acetate, 308.15 K
metric: solubility (mole fraction)

Indicate the recorded solubility (mole fraction) value for this compound: "NC(=O)c1ccccc1"
0.0453

====

conditions.used: in ethanol, 303.15 K
metric: solubility (mole fraction)
Answer as a number with no unit attached.

Give the value of solubility (mole fraction) reported for the following: "NC(=O)c1ccccc1"
0.0761

====

conditions.used: in n-propanol, 308.15 K
metric: solubility (mole fraction)
Give your answer as a number; write no unit.

Quote solubility (mole fraction) reported for "NC(=O)c1ccccc1" please.
0.0754
